B1: Triacylglycerol hydrolase DDHD2, residues 389 to 447; numbered along this chain, O94830 (parent)
chain: TLEEDLKKLQLSEFFDIFEKEKVDKEALALCTDRDLQEIGIPLGPRKKILNYFSTRKNS

variants of: B1; assay: abundance fitness (aPCA) (normalised: wild type 0, dead -1); higher = more abundant; growth selection in yeast, the domain comes from the species named; conditions: Homo sapiens
The following variants are listed with their measured abundance fitness values.
Reply briefly: the number, and no unit.

IN: Reported abundance fitness, variant `E21S` : ____
OUT: 0.453

IN: Reported abundance fitness, variant `E13P` : ____
OUT: -0.432

IN: Reported abundance fitness, variant `F53R` : ____
OUT: -0.323

IN: Reported abundance fitness, variant `L11S` : ____
OUT: -0.969

IN: Reported abundance fitness, variant `S59G` : ____
OUT: -0.151

IN: Reported abundance fitness, variant `C31I` : ____
OUT: 0.035

IN: Reported abundance fitness, variant `D24W` : ____
OUT: -0.888

IN: Reported abundance fitness, variant `L36Y` : ____
OUT: -0.765

IN: Reported abundance fitness, variant `F14C` : ____
OUT: -0.28

IN: Reported abundance fitness, variant `Q10A` : ____
OUT: -0.22

IN: Reported abundance fitness, variant `D16C` : ____
OUT: -0.084

IN: Reported abundance fitness, variant `S54P` : ____
OUT: -0.309

IN: Reported abundance fitness, variant `T1V` : ____
OUT: -0.44

IN: Reported abundance fitness, variant `D35R` : ____
OUT: 0.053

Source: the Human Domainome abundance scans (Beltran et al. 2025)
